Entry source: patent US20110053840A1

target: T1, HLA-DR2b molecules purified from L cells co-transfected with HLA-DRA and HLA-DRB1*1501 (human); assay: competitive ELISA (DELFIA) on purified HLA-DR2b, displacement of biotinylated CLIP 97-120
T1 construct: also called purified DR2b molecules
Entries annotated with measured IC50

- binder: "Ac-MIYWYSNWL-NH2 (acetylated nonapeptide amide) [HuPb30]"
  result modifier: "<"
  IC50 [nM]: 1
- binder: "Ac-WPLPLLEER-NH2 (acetylated nonapeptide amide) [HuPb10]"
  result modifier: "="
  IC50 [nM]: 33900
- binder: "Ac-GSLPRHLFR-NH2 (acetylated nonapeptide amide) [HuPb18]"
  result modifier: "="
  IC50 [nM]: 43800
- binder: "Ac-LILYYYYYL-NH2 (acetylated nonapeptide amide) [HuPb23]"
  result modifier: "="
  IC50 [nM]: 154
- binder: "Ac-MIYWYSSWI-NH2 (acetylated nonapeptide amide) [HuPb21]"
  result modifier: "="
  IC50 [nM]: 1
- binder: "Ac-LLYWYSSWP-NH2 (acetylated nonapeptide amide) [HuPb27]"
  result modifier: "<"
  IC50 [nM]: 1
- binder: "Ac-MIYWYNSWL-NH2 (acetylated nonapeptide amide) [HuPb31]"
  result modifier: "<"
  IC50 [nM]: 1
- binder: "Ac-MIYWYSSWL-NH2 (acetylated nonapeptide amide) [HuPb20]"
  result modifier: "="
  IC50 [nM]: 1
- binder: "Ac-FILIYSNLF-NH2 (acetylated nonapeptide amide) [HuPb29]"
  result modifier: "="
  IC50 [nM]: 2
- binder: "Ac-LIYWYSSWL-NH2 (acetylated nonapeptide amide) [HuPb22]"
  result modifier: "="
  IC50 [nM]: 2
